Target: T1, EDIII-DV3 (Dengue virus serotype 3 (DV3), UniProt Q6YMS3 579-671)
T1 construct: also called EDIII of DV3; EDIII-DVIII
T1 sequence (Q6YMS3 579-671 limits assumed): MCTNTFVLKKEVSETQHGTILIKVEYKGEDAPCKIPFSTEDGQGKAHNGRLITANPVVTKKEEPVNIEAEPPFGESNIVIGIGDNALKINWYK
pKd: −log10 of the molar value.
List of pKd values.

>  <binder>
4E5A (antibody, V domains shown, also called 4E11-5A; E45A) VH: VKLLEQSGAELVKPGASVRLSCTASGFNIKDTYMSWVKQRPEQGLEWIGRIDPENGDTKYDPKFQGKATITADTSSNTAYLHLSSLTSGDTAVYYCSRGWEGFAYWGQGTLVTVSA VL: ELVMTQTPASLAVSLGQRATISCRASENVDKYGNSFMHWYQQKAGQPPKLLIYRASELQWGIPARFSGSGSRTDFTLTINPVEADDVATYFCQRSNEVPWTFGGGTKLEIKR

>  <pKd>
7.62

$$$$
>  <binder>
VH_Y106R (antibody, V domains shown, copies: 2 + 2) VH: VKLLEQSGAELVKPGASVRLSCTASGFNIKDTYMSWVKQRPEQGLEWIGRIDPENGDTKYDPKFQGKATITADTSSNTAYLHLSSLTSGDTAVYYCSRGWEGFARWGQGTLVTVSA VL: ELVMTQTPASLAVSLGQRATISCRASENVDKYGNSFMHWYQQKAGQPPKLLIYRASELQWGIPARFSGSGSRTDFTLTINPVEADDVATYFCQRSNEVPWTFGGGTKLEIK

>  <pKd>
7.48

$$$$
>  <binder>
VH_S26_del (antibody, V domains shown) VH: VKLLEQSGAELVKPGASVRLSCTAGFNIKDTYMSWVKQRPEQGLEWIGRIDPENGDTKYDPKFQGKATITADTSSNTAYLHLSSLTSGDTAVYYCSRGWEGFAYWGQGTLVTVSA VL: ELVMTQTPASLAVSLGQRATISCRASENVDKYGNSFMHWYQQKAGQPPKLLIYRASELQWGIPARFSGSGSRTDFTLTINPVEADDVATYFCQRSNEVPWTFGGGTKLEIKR

>  <pKd>
8.26

$$$$
